Just for reference, patent US20210238225A1 is where these values come from.

assay system: UniProtKB Q13526
Sequence (Q13526 whole entry): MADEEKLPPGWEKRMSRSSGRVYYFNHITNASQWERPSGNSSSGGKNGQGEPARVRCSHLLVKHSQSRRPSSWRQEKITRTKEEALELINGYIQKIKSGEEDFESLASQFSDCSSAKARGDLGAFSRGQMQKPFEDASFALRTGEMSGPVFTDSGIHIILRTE
assay: Fluorescence polarization (FP) assay, binding to Pin1
setup conditions: competition with fluorescein-labeled peptide probe; 12 hours pre-incubation at 4° C.; Kenakin Ki equation; read-out: Ki, μM (FP Assay)
Non-standard residues stand in square brackets, D forms with d. Residues, ends and D or L forms follow the SMILES beside them. *: point of attachment. Phe(4-tBu) = CC(C)(C)c1ccc(C[C@H](N)C(=O)O)cc1; 2Nal = N[C@@H](Cc1ccc2ccccc2c1)C(=O)O; Cit = NC(=O)NCCC[C@H](N)C(=O)O; Pip = O=C(O)[C@@H]1CCCCN1; NHcBu = C1CC(N*)C1; ClAc = O=C(CCl)*; X1 = O=C(C1CO1)*
measurement name: Ki (µM)
Reply numerically in µM, unit not repeated.

Reported Ki (UniProtKB Q13526) for entry COC(=O)CC[C@H](NC(=O)CCl)C(=O)N1CCCC[C@H]1C(=O)N[C@@H](Cc1ccc2ccccc2c1)C(=O)N[C@@H](CCCNC(N)=O)C(N)=O [Compound 2-18] (ClAc-E(OMe)[Pip][2Nal][Cit]-NH2) is 0.14

Reported Ki (UniProtKB Q13526) for entry NC(=O)NCCC[C@H](NC(=O)[C@H](Cc1c[nH]c2ccccc12)NC(=O)[C@@H]1CCCCN1C(=O)[C@H](Cc1ccccc1)NC(=O)CCl)C(=O)NC1CCC1 [Compound 11-37] (ClAc-F[Pip]W[Cit]-NHcBu) is 0.026

Reported Ki (UniProtKB Q13526) for entry COC(=O)CC[C@H](NC(=O)C1CO1)C(=O)N1CCCC[C@H]1C(=O)N[C@@H](Cc1c[nH]c2ccccc12)C(=O)N[C@@H](CCCNC(N)=O)C(N)=O (stereo partly shown) [Compound 3] (X1-E(OMe)[Pip]W[Cit]-NH2) is 4.17

Reported Ki (UniProtKB Q13526) for entry CC(C)(C)c1ccc(C[C@H](NC(=O)[C@@H]2CCCCN2C(=O)[C@H](CCC(=O)O)NC(=O)CCl)C(=O)N[C@@H](CCCNC(=N)N)C(N)=O)cc1 [Compound 2b-14] (ClAc-E[Pip][Phe(4-tBu)]R-NH2) is 0.19
